Biological target: anti-FXI/FXIa antibody NOV1401
Assay: cell-based or functional assay
measurement-type: percentage reversal of NOV1401 aPTT prolongation, NOV1401/anti NOV1401 ratio 1/3 (n/n)
Answer with the value and then the unit.

binder: IDT5 anti-NOV1401 Fab (Fab, V domains shown, Human Fab; The heavy chain entry is VH-CH1 (Fd); also called antidote) VH: QVQLVESGGGLVKPGGSLRLSCAASGFTFSSAAVHWVRQAPGKGLEWVGRIKSKADAGTTDYAAPVKGRFTISRDDSKNTLYLQMNSLKTEDTAVYYCARDSPSISSYSIPYFSGMDVWGQGTLVTVSS VL: DIQMTQSPSSLSASVGDRVTITCRASQGIRAWLNWYQQKPGKAPKLLIYAASSLQSGVPSRFSGSGSGTDFTLTISSLQPEDFATYYCHQYITHPPTFGQGTKVEIKR
measured-value: 42%

binder: IDT2 anti-NOV1401 Fab (Fab, V domains shown, Human Fab; The heavy chain entry is VH-CH1 (Fd); also called antidote) VH: QVQLVESGGGLVKPGGSLRLSCAASGFTFSSAAVHWVRQAPGKGLEWVGRIKSKADGGTTDYAAPVKGRFTISRDDSKNTLYLQMNSLKTEDTAVYYCARDSPSISSYSIPYFSGMDVWGQGTLVTVSS VL: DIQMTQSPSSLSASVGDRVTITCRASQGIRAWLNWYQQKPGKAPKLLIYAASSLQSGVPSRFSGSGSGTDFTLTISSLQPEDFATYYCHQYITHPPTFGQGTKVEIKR
measured-value: 42%

binder: IDT1 anti-NOV1401 Fab (Fab, V domains shown, The heavy chain entry is VH-CH1 (Fd); also called antidote) VH: QVQLLESGGGLVQPGGSLRLSCAASGFTFSDYAMSWVRQAPGKGLEWVSVIDYSSSNTYYADSVKGRFTISRDNSKNTLYLQMNSLRAEDTAVYYCAREGYSYRSIRFDYWGQGTLVTVSS VL: DIQMTQSPSSLSASVGDRVTITCRASQSISSNLNWYQQKPGKAPKLLIYAASNLQSGVPSRFSGSGSGTDFTLTISSLQPEDFATYYCLQFDHTPFTFGQGTKVEIKR
measured-value: 45%

binder: IDT7 anti-NOV1401 Fab (Fab, V domains shown, Human Fab; The heavy chain entry is VH-CH1 (Fd); also called antidote) VH: QVQLVESGGGLVKPGGSLRLSCAASGFTFSSNAMHWVRQAPGKGLEWVGRIKSKTDGGTTDYAAPVKGRFTISRDDSKNTLYLQMNSLKTEDTAVYYCARDHYYYPFAYWGQGTLVTVSS VL: DIQMTQSPSSLSASVGDRVTITCRASQSIRYNLAWYQQKPGKAPKLLIYAASSLQSGVPSRFSGSGSGTDFTLTISSLQPEDFATYYCHQYIAKPITFGQGTKVEIKR
measured-value: 37%

binder: IDT8 anti-NOV1401 Fab (Fab, V domains shown, Human Fab; The heavy chain entry is VH-CH1 (Fd); also called antidote) VH: QVQLVESGGGLVKPGGSLRLSCAASGFTFSSNAMHWVRQAPGKGLEWVGRIKSKTSGGTTDYAAPVKGRFTISRDDSKNTLYLQMNSLKTEDTAVYYCARDHYYYPFAYWGQGTLVTVSS VL: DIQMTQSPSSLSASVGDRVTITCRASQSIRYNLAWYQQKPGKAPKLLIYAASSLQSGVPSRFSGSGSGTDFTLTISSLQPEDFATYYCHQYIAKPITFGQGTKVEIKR
measured-value: 25%

binder: IDT4 anti-NOV1401 Fab (Fab, V domains shown, Human Fab; The heavy chain entry is VH-CH1 (Fd); also called antidote) VH: QVQLVESGGGLVKPGGSLRLSCAASGFTFSSAAVHWVRQAPGKGLEWVGRIKSKASGGTTDYAAPVKGRFTISRDDSKNTLYLQMNSLKTEDTAVYYCARDSPSISSYSIPYFSGMDVWGQGTLVTVSS VL: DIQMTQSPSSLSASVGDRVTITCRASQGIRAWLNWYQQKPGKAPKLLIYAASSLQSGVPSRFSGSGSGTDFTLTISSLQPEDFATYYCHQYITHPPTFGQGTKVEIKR
measured-value: 27%

binder: IDT3 anti-NOV1401 Fab (Fab, V domains shown, Human Fab; The heavy chain entry is VH-CH1 (Fd); also called antidote) VH: QVQLVESGGGLVKPGGSLRLSCAASGFTFQSAAVHWVRQAPGKGLEWVGRIKSKADGGTTDYAAPVKGRFTISRDDSKNTLYLQMNSLKTEDTAVYYCARDSPSISSYSIPYFSGMDVWGQGTLVTVSS VL: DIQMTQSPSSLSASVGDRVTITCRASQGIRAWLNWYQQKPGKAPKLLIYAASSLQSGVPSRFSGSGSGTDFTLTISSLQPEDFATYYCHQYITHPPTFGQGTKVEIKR
measured-value: 35%

Now, please, on to the next binder.
QUERY: Bench note: what percentage reversal of NOV1401 aPTT prolongation, NOV1401/anti NOV1401 ratio 1/3 (n/n) did IDT9 anti-NOV1401 Fab (Fab, V domains shown, Human Fab; The heavy chain entry is VH-CH1 (Fd); also called antidote) VH: QVQLVQSGAEVKKPGASVKVSCKASGYTFTNYYVHWVRQAPGQGLEWMGWINPYNGNTNYAQKFQGRVTMTRDTSISTAYMELSRLRSEDTAVYYCARGASSIRMSYYLDVWGQGTLVTVSS VL: DIQMTQSPSSLSASVGDRVTITCRASQSISNYLNWYQQKPGKAPKLLIYAASNLQSGVPSRFSGSGSGTDFTLTISSLQPEDFATYYCFQYTHSPATFGQGTKVEIKR show?
RESULT: 25%
